// reported viability, T/C for each item listed
Tested on: 993429-296-R-J1-PDC complex spheroid growth, percent test/control
test: Anticancer human tumor 993429-296-R-J1-PDC patient-derived uterine sarcoma cell line growth inhibition [Asc]
assay setup: second compound 0.03 µM; first compound 0.1 µM; stronger effect = lower value
API: value field is a number in %; no unit string.

[[record]]
compound = "Cn1ncnc1[C@H]1c2n[nH]c(=O)c3cc(F)cc(c23)N[C@@H]1c1ccc(F)cc1 + CCN1C(C(=O)NC23CCC(C(=O)O)(CC2)CC3)C(c2cccc(Cl)c2F)C2(C(=O)Nc3cc(Cl)ccc32)C12CCCCC2"
test_result = 45.1

[[record]]
compound = "CCN1CCN(Cc2ccc(Nc3ncc(F)c(-c4cc(F)c5nc(C)n(C(C)C)c5c4)n3)nc2)CC1 + CCN1C(C(=O)NC23CCC(C(=O)O)(CC2)CC3)C(c2cccc(Cl)c2F)C2(C(=O)Nc3cc(Cl)ccc32)C12CCCCC2"
test_result = 110

[[record]]
compound = "C=C(F)C(=O)N1CCN(c2nc(OCC3CCCN3C)nc3c2CCN(c2cccc4cccc(Cl)c24)C3)CC1CC#N (configuration not stated) + CCN1C(C(=O)NC23CCC(C(=O)O)(CC2)CC3)C(c2cccc(Cl)c2F)C2(C(=O)Nc3cc(Cl)ccc32)C12CCCCC2"
test_result = 95.3

[[record]]
compound = "COc1c(OCCCN2CCOCC2)ccc2c3n(c(=NC(=O)c4cnc(N)nc4)nc12)CCN3 + CCN1C(C(=O)NC23CCC(C(=O)O)(CC2)CC3)C(c2cccc(Cl)c2F)C2(C(=O)Nc3cc(Cl)ccc32)C12CCCCC2"
test_result = 6.36

[[record]]
compound = "C#Cc1c(F)ccc2cc(O)cc(-c3ncc4c(N5CC6CCC(C5)N6)nc(OCC56CCCN5CC(F)C6)nc4c3F)c12 (configuration not stated) + CCN1C(C(=O)NC23CCC(C(=O)O)(CC2)CC3)C(c2cccc(Cl)c2F)C2(C(=O)Nc3cc(Cl)ccc32)C12CCCCC2"
test_result = 96.5

[[record]]
compound = "C=CC(=O)N1CCN(c2nc(=O)n(-c3c(C)ccnc3C(C)C)c3nc(-c4c(O)cccc4F)c(F)cc23)C(C)C1 (configuration not stated) + CCN1C(C(=O)NC23CCC(C(=O)O)(CC2)CC3)C(c2cccc(Cl)c2F)C2(C(=O)Nc3cc(Cl)ccc32)C12CCCCC2"
test_result = 101


Could you now look at the following compound, please?
Which viability, T/C is listed for O=C(c1ccc(F)c(F)c1Nc1ccc(I)cc1F)N1CC(O)([C@@H]2CCCCN2)C1 + CCN1C(C(=O)NC23CCC(C(=O)O)(CC2)CC3)C(c2cccc(Cl)c2F)C2(C(=O)Nc3cc(Cl)ccc32)C12CCCCC2 ? 38.7

====

Tested on: 993429-296-R-J1-PDC complex spheroid growth, percent test/control
test: Anticancer human tumor 993429-296-R-J1-PDC cell line growth inhibition [Asc];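 note: spheroids exposed to compounds for seven days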
assay setup: curve of first compound; second compound 1 µM
Quick list: pIC50 per entry.
// pIC50 is dimensionless: -log10 of concentration (M)

[[record]]
compound = "O=C(c1cc(Cc2n[nH]c(=O)c3ccccc23)ccc1F)N1CCN(C(=O)C2CC2)CC1 + Cc1c(S(C)(=O)=O)c(-c2cc(F)cc(N3CCN(c4ccc(NS(=O)(=O)c5ccc(NC(CCN6CCC(C(=O)OCCCP(=O)(O)O)CC6)CSc6ccccc6)c(S(=O)(=O)C(F)(F)F)c5)cc4)CC3)c2)c(-c2ccc(Cl)cc2)n1C(C)C"
measurement_target = "993429-296-R-J1-PDC complex spheroid growth, percent test/control"
observable = "pIC50"
test_result = 6.11


Let's switch to this compound now.
Request body: readout pIC50, system 993429-296-R-J1-PDC complex spheroid growth, percent test/control, query NC(=O)C(=Cn1cnc(-c2cc(C(F)(F)F)cc(C(F)(F)F)c2)n1)c1cncnc1 + CNC(C)C(=O)NC1CN(S(=O)(=O)c2cccc(S(=O)(=O)N3CCC4CCC(C(=O)NC(c5ccccc5)c5ccccc5)N4C(=O)C(NC(=O)C(C)NC)C3)c2)CCC2CCC(C(=O)NC(c3ccccc3)c3ccccc3)N2C1=O . Return the value. 8.09

Source of measurements: PubChem BioAssay AID1963446
